Would you mind telling me the reported inhibition of each entry?
Target: Mannose-6-phosphate isomerase (Homo sapiens) (UniProt P34949)
Sequence (P34949 whole entry, looked up): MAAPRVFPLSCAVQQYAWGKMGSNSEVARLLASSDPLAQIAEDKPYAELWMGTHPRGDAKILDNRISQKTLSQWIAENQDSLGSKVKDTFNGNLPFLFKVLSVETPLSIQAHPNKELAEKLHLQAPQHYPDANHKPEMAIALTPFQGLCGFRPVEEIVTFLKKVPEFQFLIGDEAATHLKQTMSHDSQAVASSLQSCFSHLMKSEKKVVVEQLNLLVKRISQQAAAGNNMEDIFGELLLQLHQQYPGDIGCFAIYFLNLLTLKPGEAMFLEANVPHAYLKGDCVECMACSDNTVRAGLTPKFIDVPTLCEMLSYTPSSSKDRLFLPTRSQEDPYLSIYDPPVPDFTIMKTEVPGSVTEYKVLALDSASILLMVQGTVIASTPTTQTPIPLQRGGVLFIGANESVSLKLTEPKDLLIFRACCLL
Assay: MPI inhibition at elevated mannose 6-phosphate – biochemical, fluorescence intensity, high mannose 6-phosphate, primary screen (AID 1220)
Settings: recombinant PMI enzyme, coupled fluorescence intensity; at 20 µM; active compounds read high
In all, about 190,000 compounds went through this assay and about 1,300 (0.68%) were called active. The full list was thinned out, with actives kept by preference.
Expressed in %, but write only the number.

Query: inhibition; subject: Cc1ccc(C)c(NC(=O)c2nc(-c3ccccc3)n(-c3ccccc3)n2)c1
16.2

Query: inhibition; subject: Cc1ccc(-c2csc(/C(C#N)=C/Nc3ccccc3SC(F)(F)F)n2)cc1
-3.6

Query: inhibition; subject: COc1cccc(-c2nnc(SCC(=O)Nc3cc(C)on3)n2C)c1
-5.8

---

Molecular target: Mannose-6-phosphate isomerase (Homo sapiens) (UniProt P34949)
Assay: MPI inhibition at elevated mannose 6-phosphate – biochemical, fluorescence intensity, high mannose 6-phosphate, primary screen (AID 1220)
Settings: recombinant PMI enzyme, coupled fluorescence intensity; at 20 µM; active compounds read high
Among all 190,000 compounds or so, about 1,300 (0.68%) were called active. The full list was thinned out, with actives kept by preference.
readout: inhibition (%)
Expressed in %, but write only the number.

Query: inhibition; subject: Cc1ccccc1NC(=S)NCc1ccc(Cl)cc1
9.2

Query: inhibition; subject: COc1cc(CN2CCNC(=O)C2CC(=O)N2CCCCO2)cc(OC)c1 (centres undefined)
52

Query: inhibition; subject: Nc1cc(=O)[nH]c(SCc2nnc(-c3ccccc3)o2)n1
-0.3

Query: inhibition; subject: CNC(=S)N1N=C(c2ccccc2)CC1c1ccccc1Cl (centres undefined)
1

---

Target: Mannose-6-phosphate isomerase (Homo sapiens) (UniProt P34949)
Experiment: MPI inhibition at elevated mannose 6-phosphate – biochemical, fluorescence intensity, high mannose 6-phosphate, primary screen (AID 1220)
Conditions: recombinant PMI enzyme, coupled fluorescence intensity; at 20 µM; active compounds read high
Hit rate of the full screen: of about 190,000 compounds, about 1,300 (0.68%) were called active. The sample holds actives, similar compounds and a random draw of the others, so the mix is not that of the screen.
Would you mind telling me the reported inhibition of each entry?
Expressed in %, but write only the number.

Query: inhibition; subject: O=C(CSc1ncccc1C(=O)O)c1ccccc1
-60.9

Query: inhibition; subject: C/C(=N\NC(=O)c1nn(C)c(C)c1Br)c1ccc(NC(=O)c2ccccc2F)cc1
10.7

Query: inhibition; subject: Cc1c(C(N)=O)sc2ncn(CC(=O)NCCc3ccccc3)c(=O)c12
-8.4

Query: inhibition; subject: CCCC(=O)NC(c1ccccc1OC)c1ccc2cccnc2c1O (stereo not drawn)
39.5

Query: inhibition; subject: CO[C@H]1C=CO[C@@]2(C)Oc3c(C)c(O)c4c(O)c(c(C=NN5CCN(C6CCCC6)CC5)c(O)c4c3C2=O)NC(=O)C(C)=CC=C[C@H](C)[C@H](O)[C@@H](C)[C@@H](O)[C@@H](C)[C@H](OC(C)=O)[C@@H]1C
73.8

Query: inhibition; subject: COc1ccc(CC(=O)Nc2ccc(-c3cn4ccc(C)cc4n3)cc2)cc1
-1.3

Query: inhibition; subject: CN1CCN(CC(=O)Nc2cc(N3CCOCC3)ccc2[N+](=O)[O-])CC1
62.6

Query: inhibition; subject: Cc1cccc(NC(=O)c2ccoc2C)n1
9.2

Query: inhibition; subject: N#Cc1ccsc1NC(=O)CN1CCN(c2ccc(O)cc2)CC1
54.7

Query: inhibition; subject: O=C(CN1CCN(c2ccc(O)cc2)CC1)Nc1cc(S(=O)(=O)N2CCCC2)ccc1Cl
45.4

Query: inhibition; subject: COc1ccc(C(C(=O)NC2CCCC2)N(Cc2ccccc2)C(=O)c2nsc(Cl)c2Cl)cc1 (stereo not drawn)
21.1

Query: inhibition; subject: CC(=O)N1CCN(CC(=O)Nc2cc(S(=O)(=O)N3CCOCC3)ccc2C)CC1
2

Query: inhibition; subject: Nc1nc(SCC(=O)NCCOCCO)nc2sc3c(c12)CCCC3
2.8

Query: inhibition; subject: CC(=O)N1CCC(N(CCN2CCOCC2)C(=S)Nc2cccc(C)c2)CC1
-11.5

Query: inhibition; subject: CC(=O)Nc1ccc(C(=O)OCC(=O)Nc2ccccc2Sc2ccccc2)cc1
2.4

Query: inhibition; subject: Cc1ccc(NC(=O)CS(=O)CC(=O)NCCCN(C)c2ccccc2)cc1 (stereo not drawn)
11.5

Query: inhibition; subject: O=C(Cn1cnc2ccccc2c1=O)NCCC(=O)Nc1ccc2c(c1)OCCO2
-6.6

Query: inhibition; subject: CCC(=O)NC(c1cccs1)c1ccc2cccnc2c1O (stereo not drawn)
49.8

Query: inhibition; subject: Cc1ccccc1N=Nc1ccc(O)c2ncccc12
31.3

Query: inhibition; subject: CN=C(Nc1cccc(OC)c1)SC1CC(=O)N(c2ccc(C(=O)O)cc2)C1=O (stereo not drawn)
8.7

Query: inhibition; subject: COCCNC(=O)C1=NOC(Cn2cc(C#N)c(=O)n(C)c2=O)C1 (stereo not drawn)
5.3

Query: inhibition; subject: Cc1cccc(NC(c2ccc(O)cc2)c2ccc3ccc(C)nc3c2O)n1 (stereo not drawn)
8.7

Query: inhibition; subject: CCC(=O)NC(c1ccccc1OC)c1ccc2cccnc2c1O (stereo not drawn)
50.2

Query: inhibition; subject: CC1(CC(=O)N/N=C/c2ccc(OCc3ccc(Cl)cc3Cl)cc2)OCCCO1
10.6

Query: inhibition; subject: CCC(=O)c1ccc(N2CCN(C(=O)c3cccc(F)c3)CC2)c(F)c1
7.7

Query: inhibition; subject: CCOC(=O)C1=C(C)N(C)C(=O)NC1c1c(C)nn(-c2ccccc2)c1C (stereo not drawn)
1.3

Query: inhibition; subject: COc1ccc(CC(=O)NCc2n[nH]c(=S)n2-c2ccccc2)cc1
-0.6

Query: inhibition; subject: Cc1nc2ccc(Nc3nc4cc(S(=O)(=O)N5CCOCC5)ccc4o3)cc2s1
61.9

Query: inhibition; subject: CN1CCN(CC(=O)Nc2ccccc2[N+](=O)[O-])CC1
-2.9

Query: inhibition; subject: COc1ccccc1NC(=O)CN1CCN(c2ccccn2)CC1
-9

Query: inhibition; subject: COc1ccc(O)c(CNc2ccccc2F)c1
17.2

Query: inhibition; subject: COc1cc(/C=N/NC(=O)CC2(C)OCCCO2)ccc1OCc1ccccc1
2.4

Query: inhibition; subject: CN1CCN(C(c2cccnc2)c2ccc3cccnc3c2O)CC1 (stereo not drawn)
39.6

Query: inhibition; subject: O/C(=C\c1ccc2ccccc2n1)c1ccc(O)cc1O
-10.3

Query: inhibition; subject: CCN1CCN(c2cc(C)c3cc(NC(=O)c4ccc(Br)o4)ccc3n2)CC1
-5.1

Query: inhibition; subject: CC(C)CC[n+]1ccn(C2=C([O-])c3ccccc3C(=O)/C2=N\S(=O)(=O)c2ccccc2)c1
47

Query: inhibition; subject: CCOc1ccc(CNC(=O)CCc2cn(Cc3ccccc3)c3ccccc23)cc1
0.6

Query: inhibition; subject: CCC(C(=O)OCC(=O)Nc1ccc(OC)cc1OC)c1ccccc1 (stereo not drawn)
10.5

---

Biological target: Mannose-6-phosphate isomerase (Homo sapiens) (UniProt P34949)
Assay: MPI inhibition at elevated mannose 6-phosphate – biochemical, fluorescence intensity, high mannose 6-phosphate, primary screen (AID 1220)
Conditions: recombinant PMI enzyme, coupled fluorescence intensity; at 20 µM; active compounds read high
Among all 190,000 compounds or so, about 1,300 (0.68%) were called active. For the sample, actives were picked, then their nearest neighbours and some compounds at random.
The threshold is inclusive: inhibition of exactly 40% counts as Fulfilled; values below receive Not fulfilled.

Is the recorded value of inhibition equal to or greater than 40% for this compound? C/C(=N\Nc1ccc(F)cc1F)c1ccc(N2CCOCC2)cc1
Not fulfilled

Is the recorded value of inhibition equal to or greater than 40% for this compound? CCSc1nnc(NC(=O)C2CC(=O)N(Cc3ccc(C)cc3)C2)s1 (configuration not stated)
Not fulfilled

Is the recorded value of inhibition equal to or greater than 40% for this compound? COc1cc(OC)c2c(c1)OC(c1ccc(OC)c(OC)c1)C(O)C2=O (configuration not stated)
Not fulfilled

Is the recorded value of inhibition equal to or greater than 40% for this compound? CCCn1c(SCC(=O)NCc2ccc(OC)cc2)n[nH]c1=O
Not fulfilled

Is the recorded value of inhibition equal to or greater than 40% for this compound? CCn1cc(C(=O)N2CCc3ccccc32)c(=O)c2cc(S(=O)(=O)N3CCCCCC3)ccc21
Not fulfilled

Is the recorded value of inhibition equal to or greater than 40% for this compound? CCN(CC)C(=O)C1=C(C)Nc2nnnn2C1c1cccnc1 (configuration not stated)
Not fulfilled

Is the recorded value of inhibition equal to or greater than 40% for this compound? O=C1COc2ccc(C(=O)COC(=O)Cc3ccccc3F)cc2N1
Not fulfilled

Is the recorded value of inhibition equal to or greater than 40% for this compound? OCc1ccnc2c(O)cccc12
Fulfilled

Is the recorded value of inhibition equal to or greater than 40% for this compound? Oc1ccc(CN2CCN(c3ccccc3)CC2)c2cccnc12
Fulfilled

Is the recorded value of inhibition equal to or greater than 40% for this compound? COc1ccccc1N1CCN(Cc2cc(Br)c(O)c3ncccc23)CC1
Fulfilled

Is the recorded value of inhibition equal to or greater than 40% for this compound? COc1cc(OC)c2c(O)c3c(c(-c4c5c(c(O)c6c(OC)cc(OC)cc46)CO[C@@H](C)[C@H]5O)c2c1)[C@H](O)[C@H](C)OC3
Fulfilled

Is the recorded value of inhibition equal to or greater than 40% for this compound? c1ccc(OCCCc2nc(-c3cccnc3)no2)cc1
Not fulfilled
